conditions: rat, in vivo, iv, 0.3 mg/kg
Bridge positions count the residues as written; N and C are the ends. Square brackets hold non-standard residues; d marks the D form. Peptide text beside a SMILES is read from it. * marks the point of attachment. Piperazin2one(3S-Bu,6R-CO) = CCCC[C@@H]1NC[C@H](C(=O)*)NC1=O; X1 = N=C(N)NCCC[C@H]1C(=O)N[C@@H](C(N)=O)CN1*; Heptanoyl = CCCCCCC(=O)*; Nle = CCCC[C@H](N)C(=O)O; Orn = NCCC[C@H](N)C(=O)O
quantity-name: half-life (min)
Express the result in min but write the number alone.

CCCCCCC(=O)N[C@H]1CSSC[C@@H](C(=O)N[C@@H](Cc2ccc(O)cc2)C(=O)N2C[C@H](C(N)=O)NC(=O)[C@@H]2CCCNC(=N)N)NC(=O)[C@H](CO)NC(=O)[C@H]([C@@H](C)CC)NC(=O)[C@H](CCCNC(=N)N)NC(=O)[C@H](CC(=O)O)NC(=O)[C@H](CCCC)NC(=O)[C@H](CCCNC(=N)N)NC(=O)CNC(=O)CNC(=O)[C@H](Cc2ccccc2)NC(=O)[C@H](Cc2c[nH]cn2)NC1=O [1-63] (Heptanoyl-CHFGGR[Nle]DRISCY-X1; disulfide 1-12) | 18
CCCC[C@@H]1NC[C@H](C(=O)N[C@H]2CSSC[C@@H](C(=O)N[C@@H](Cc3ccc(O)cc3)C(=O)N3C[C@H](C(N)=O)NC(=O)[C@@H]3CCCNC(=N)N)NC(=O)[C@H](CO)NC(=O)[C@H]([C@@H](C)CC)NC(=O)[C@H](CCCNC(=N)N)NC(=O)[C@H](CC(=O)O)NC(=O)[C@H](CCCC)NC(=O)[C@H](CCCNC(=N)N)NC(=O)CNC(=O)CNC(=O)[C@H](Cc3ccccc3)NC(=O)[C@H](Cc3c[nH]cn3)NC2=O)NC1=O [1-18] ({Piperazin2one(3S-Bu,6R-CO)}-CHFGGR[Nle]DRISCY-X1; disulfide 1-12) | 12

Continue with the molecule presented below.
Please indicate half-life recorded for CCCC[C@@H]1NC[C@H](C(=O)N[C@H]2CSSC[C@@H](C(=O)N[C@@H](Cc3ccc(O)cc3)C(=O)N3C[C@H](C(N)=O)NC(=O)[C@@H]3CCCNC(=N)N)NC(=O)[C@H](CO)NC(=O)[C@H]([C@@H](C)CC)NC(=O)[C@H](CCCN)NC(=O)[C@H](CC(=O)O)NC(=O)[C@H](CCCC)NC(=O)[C@H](CCCNC(=N)N)NC(=O)CNC(=O)CNC(=O)[C@H](Cc3ccccc3)NC(=O)[C@H](Cc3c[nH]cn3)NC2=O)NC1=O [1-55] ({Piperazin2one(3S-Bu,6R-CO)}-CHFGGR[Nle]D[Orn]ISCY-X1; disulfide 1-12)
12

###

biological target: NEP (neutral endopeptidase) (Homo sapiens, UniProt P08473); construct: purchased R&D Systems, Minneapolis, Minn; 1182-ZN; assay: hNEP resistance assay (digestion by neutral endopeptidase); type: in vitro ADME; details: isolated enzyme neprilysin, pH 7.4; incubation with human recombinant NEP at 37° C., 2 h; read-out: hNEP % of Starting Material 2 h
Sequence (P08473 52-750 limits assumed): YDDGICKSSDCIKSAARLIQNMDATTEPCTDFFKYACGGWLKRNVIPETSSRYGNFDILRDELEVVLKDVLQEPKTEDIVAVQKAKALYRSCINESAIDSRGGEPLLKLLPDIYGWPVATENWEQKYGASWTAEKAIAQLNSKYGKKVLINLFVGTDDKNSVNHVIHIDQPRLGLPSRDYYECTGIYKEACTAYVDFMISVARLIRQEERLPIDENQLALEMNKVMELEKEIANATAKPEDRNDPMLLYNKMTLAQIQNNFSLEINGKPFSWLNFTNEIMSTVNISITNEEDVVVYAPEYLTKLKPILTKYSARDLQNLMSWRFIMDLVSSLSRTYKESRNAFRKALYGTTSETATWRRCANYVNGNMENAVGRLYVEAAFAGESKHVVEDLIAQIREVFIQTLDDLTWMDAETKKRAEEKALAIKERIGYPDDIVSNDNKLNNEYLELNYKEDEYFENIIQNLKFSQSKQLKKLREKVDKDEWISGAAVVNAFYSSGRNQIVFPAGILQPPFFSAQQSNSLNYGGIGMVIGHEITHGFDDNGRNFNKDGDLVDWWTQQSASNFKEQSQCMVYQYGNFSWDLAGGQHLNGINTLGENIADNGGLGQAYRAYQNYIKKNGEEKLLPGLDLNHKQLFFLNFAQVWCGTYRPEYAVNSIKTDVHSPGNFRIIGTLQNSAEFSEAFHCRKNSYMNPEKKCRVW
Bridge positions count the residues as written; N and C are the ends. Square brackets hold non-standard residues; d marks the D form. Peptide text beside a SMILES is read from it. * marks the point of attachment. X1 = N=C(N)NCCC[C@H]1C(=O)N[C@@H](C(N)=O)CN1*; Heptanoyl = CCCCCCC(=O)*; Nle = CCCC[C@H](N)C(=O)O
quantity-name: remaining at 2 h, 50 µM (%)
Numbers only; they are read as %.

Give recorded remaining at 2 h, 50 µM. CCCCCCC(=O)N[C@H]1CSSC[C@@H](C(=O)N[C@@H](Cc2ccc(O)cc2)C(=O)N2C[C@H](C(N)=O)NC(=O)[C@@H]2CCCNC(=N)N)NC(=O)[C@H](CO)NC(=O)[C@H]([C@@H](C)CC)NC(=O)[C@H](CCCNC(=N)N)NC(=O)[C@H](CC(=O)O)NC(=O)[C@H](CCCC)NC(=O)[C@H](CCCNC(=N)N)NC(=O)CNC(=O)[C@@H](C)NC(=O)[C@H](Cc2ccccc2)NC(=O)[C@H](Cc2c[nH]cn2)NC1=O [1-130] (Heptanoyl-CHF[dA]GR[Nle]DRISCY-X1; disulfide 1-12)
56

###

settings: rat, in vivo, iv, 2 mg/kg
Bridge positions count the residues as written; N and C are the ends. Square brackets hold non-standard residues; d marks the D form. Peptide text beside a SMILES is read from it. * marks the point of attachment. Piperazin2one(3S-Bu,6R-CO) = CCCC[C@@H]1NC[C@H](C(=O)*)NC1=O; X1 = N=C(N)NCCC[C@H]1C(=O)N[C@@H](C(N)=O)CN1*; X3 = CC(C)C[C@@H]1NC[C@H](C(=O)*)NC1=O; Nle = CCCC[C@H](N)C(=O)O
Quick reference: half-life of the listed items.
Please state the figure in min; there is no need to write the unit.

The examples below pair each entry with its known result.
CCCC[C@@H]1NC(=O)[C@H](CCCNC(=N)N)NC(=O)CNC(=O)CNC(=O)[C@H](Cc2ccccc2)NC(=O)[C@H](Cc2c[nH]cn2)NC(=O)[C@@H](NC(=O)[C@H]2CN[C@@H](CC(C)C)C(=O)N2)CSSC[C@@H](C(=O)N[C@@H](Cc2ccc(O)cc2)C(=O)N2C[C@H](C(N)=O)NC(=O)[C@@H]2CCCNC(=N)N)NC(=O)[C@H](CO)NC(=O)[C@H]([C@@H](C)CC)NC(=O)[C@H](CCCNC(=N)N)NC(=O)[C@H](CC(=O)O)NC1=O [1-51] (X3-CHFGGR[Nle]DRISCY-X1; disulfide 1-12) | 12
CCCC[C@@H]1NC[C@H](C(=O)N[C@H]2CSSC[C@@H](C(=O)N[C@@H](Cc3ccc(O)cc3)C(=O)N3C[C@H](C(N)=O)NC(=O)[C@@H]3CCCNC(=N)N)NC(=O)[C@H](CO)NC(=O)[C@H]([C@@H](C)CC)NC(=O)[C@H](C)NC(=O)[C@H](CC(=O)O)NC(=O)[C@H](CCCC)NC(=O)[C@H](C)NC(=O)CNC(=O)CNC(=O)[C@H](Cc3ccccc3)NC(=O)[C@H](Cc3c[nH]cn3)NC2=O)NC1=O [1-100] ({Piperazin2one(3S-Bu,6R-CO)}-CHFGGA[Nle]DAISCY-X1; disulfide 1-12) | 6
CCCC[C@@H]1NC[C@H](C(=O)N[C@H]2CSSC[C@@H](C(=O)N[C@@H](Cc3ccc(O)cc3)C(=O)N3C[C@H](C(N)=O)NC(=O)[C@@H]3CCCNC(=N)N)NC(=O)[C@H](CO)NC(=O)[C@H]([C@@H](C)CC)NC(=O)[C@H](CCCNC(=N)N)NC(=O)[C@H](CC(=O)O)NC(=O)[C@H](CCCC)NC(=O)[C@H](CCCNC(=N)N)NC(=O)CNC(=O)CNC(=O)[C@@H](Cc3ccccc3)NC(=O)[C@H](Cc3c[nH]cn3)NC2=O)NC1=O [1-39] ({Piperazin2one(3S-Bu,6R-CO)}-CH[dF]GGR[Nle]DRISCY-X1; disulfide 1-12) | 18

With those in mind, consider the next compound.
Retrieve half-life measured for CCCC[C@@H]1NC[C@H](C(=O)N[C@H]2CSSC[C@@H](C(=O)N[C@@H](Cc3ccc(O)cc3)C(=O)N3C[C@H](C(N)=O)NC(=O)[C@@H]3CCCNC(=N)N)NC(=O)[C@H](CO)NC(=O)[C@H]([C@@H](C)CC)NC(=O)[C@@H](CCCNC(=N)N)NC(=O)[C@H](CC(=O)O)NC(=O)[C@H](CCCC)NC(=O)[C@H](CCCNC(=N)N)NC(=O)CNC(=O)CNC(=O)[C@H](Cc3ccccc3)NC(=O)[C@H](Cc3c[nH]cn3)NC2=O)NC1=O [1-45] ({Piperazin2one(3S-Bu,6R-CO)}-CHFGGR[Nle]D[dR]ISCY-X1; disulfide 1-12) and print it.
18

###

details: rat, in vivo, iv, 2 mg/kg
Bridge positions count the residues as written; N and C are the ends. Square brackets hold non-standard residues; d marks the D form. Peptide text beside a SMILES is read from it. * marks the point of attachment. Piperazin2one(3S-Bu,6R-CO) = CCCC[C@@H]1NC[C@H](C(=O)*)NC1=O; X1 = N=C(N)NCCC[C@H]1C(=O)N[C@@H](C(N)=O)CN1*; dNle = CCCC[C@@H](N)C(=O)O; Heptanoyl = CCCCCCC(=O)*; Nle = CCCC[C@H](N)C(=O)O
clearance for assorted compounds
Give the value, in units of mL/min/kg, as a plain number.

Field: example entries. Status: answers known.
CCCCCCC(=O)N[C@H]1CSSC[C@@H](C(=O)N[C@@H](Cc2ccc(O)cc2)C(=O)N2C[C@H](C(N)=O)NC(=O)[C@@H]2CCCNC(=N)N)NC(=O)[C@H](CO)NC(=O)[C@H]([C@@H](C)CC)NC(=O)[C@H](CCCNC(=N)N)NC(=O)[C@H](CC(=O)O)NC(=O)[C@H](CCCC)NC(=O)[C@H](CCCNC(=N)N)NC(=O)CNC(=O)CNC(=O)[C@H](Cc2ccccc2)NC(=O)[C@H](Cc2c[nH]cn2)NC1=O [1-63] (Heptanoyl-CHFGGR[Nle]DRISCY-X1; disulfide 1-12) | 290
CCCC[C@@H]1NC[C@H](C(=O)N[C@H]2CSSC[C@@H](C(=O)N[C@@H](Cc3ccc(O)cc3)C(=O)N3C[C@H](C(N)=O)NC(=O)[C@@H]3CCCNC(=N)N)NC(=O)[C@H](CO)NC(=O)[C@H]([C@@H](C)CC)NC(=O)[C@@H](CCCNC(=N)N)NC(=O)[C@H](CC(=O)O)NC(=O)[C@H](CCCC)NC(=O)[C@H](CCCNC(=N)N)NC(=O)CNC(=O)CNC(=O)[C@H](Cc3ccccc3)NC(=O)[C@H](Cc3c[nH]cn3)NC2=O)NC1=O [1-45] ({Piperazin2one(3S-Bu,6R-CO)}-CHFGGR[Nle]D[dR]ISCY-X1; disulfide 1-12) | 23
CCCC[C@@H]1NC[C@H](C(=O)N[C@H]2CSSC[C@@H](C(=O)N[C@@H](Cc3ccc(O)cc3)C(=O)N3C[C@H](C(N)=O)NC(=O)[C@@H]3CCCNC(=N)N)NC(=O)[C@H](CO)NC(=O)[C@H]([C@@H](C)CC)NC(=O)[C@H](CCCNC(=N)N)NC(=O)[C@H](CC(=O)O)NC(=O)[C@@H](CCCC)NC(=O)[C@H](CCCNC(=N)N)NC(=O)CNC(=O)CNC(=O)[C@H](Cc3ccccc3)NC(=O)[C@H](Cc3c[nH]cn3)NC2=O)NC1=O [1-43] ({Piperazin2one(3S-Bu,6R-CO)}-CHFGGR[dNle]DRISCY-X1; disulfide 1-12) | 14
CCCC[C@@H]1NC[C@H](C(=O)N[C@H]2CSSC[C@@H](C(=O)N[C@@H](Cc3ccc(O)cc3)C(=O)N3C[C@H](C(N)=O)NC(=O)[C@@H]3CCCNC(=N)N)NC(=O)[C@H](CO)NC(=O)[C@H]([C@@H](C)CC)NC(=O)[C@H](CCCNC(=N)N)NC(=O)[C@H](CC(=O)O)NC(=O)[C@H](CCCC)NC(=O)[C@H](CCCNC(=N)N)NC(=O)CNC(=O)CNC(=O)[C@H](Cc3ccccc3)NC(=O)[C@H](Cc3c[nH]cn3)NC2=O)NC1=O [1-18] ({Piperazin2one(3S-Bu,6R-CO)}-CHFGGR[Nle]DRISCY-X1; disulfide 1-12) | 72

Pending compound:
Fill in reported clearance for this entry: CCCC[C@@H]1NC[C@H](C(=O)N[C@H]2CSSC[C@@H](C(=O)N[C@@H](Cc3ccc(O)cc3)C(=O)N3C[C@H](C(N)=O)NC(=O)[C@@H]3CCCNC(=N)N)NC(=O)[C@H](C)NC(=O)[C@H]([C@@H](C)CC)NC(=O)[C@H](CCCNC(=N)N)NC(=O)[C@H](CC(=O)O)NC(=O)[C@H](CCCC)NC(=O)[C@H](CCCNC(=N)N)NC(=O)CNC(=O)CNC(=O)[C@H](Cc3ccccc3)NC(=O)[C@H](C)NC2=O)NC1=O [1-69] ({Piperazin2one(3S-Bu,6R-CO)}-CAFGGR[Nle]DRIACY-X1; disulfide 1-12)
168
